# Tested on: 379773-124-R-J2-PDC spheroid viability
# Test Method Notes: Anticancer human tumor 379773-124-R-J2-PDC patient-derived endometrial carcinoma cell line growth inhibition [POLQ]; active means viability on the fitted dose curve at most 10% of control; inactive means the rest
# Test Conditions: second compound 0.0316 µM; first compound 0.1 µM; spheroids with HUVEC and MSC
Classes to choose from: TRUE = active, FALSE = inactive

Incoming: Call for entry CC(C)n1c(=O)n(C)c2cnc3cc(F)c(-c4ccc(OCCCN5CCCCC5)nc4)cc3c21 + Nc1ccc(C#CCN(C(=O)Cc2ncc(C(F)(F)F)cc2C(F)(F)F)c2ccc(F)cc2)nn1 :
Outgoing: FALSE

Incoming: Call for entry COc1cccc(OCCCN)c1-c1cc(Nc2cnc(C#N)cn2)n[nH]1 + Nc1ccc(C#CCN(C(=O)Cc2ncc(C(F)(F)F)cc2C(F)(F)F)c2ccc(F)cc2)nn1 :
Outgoing: TRUE

Incoming: Call for entry COc1cccc(OCCCN)c1-c1cc(Nc2cnc(C#N)cn2)n[nH]1 + Cc1cccc(N(C)C(=O)C2C(O)CCN2c2nc(C)cc(C(F)(F)F)c2C#N)c1 :
Outgoing: TRUE

Incoming: Call for entry CC1COCCN1c1cc(C2(O)CC3CCC(C2)O3)c2cnn(-c3ccn[nH]3)c2n1 (stereo not given) + COC1C(OC(N)=O)C(O)C(Oc2ccc3c(O)c(NC(=O)c4ccc(O)c(CC=C(C)C)c4)c(=O)oc3c2C)OC1(C)C :
Outgoing: FALSE

Incoming: Call for entry CC[C@@]1(O)C(=O)OCc2c1cc1n(c2=O)Cc2cc3c(CN(C)C)c(O)ccc3nc2-1 + Nc1ccc(C#CCN(C(=O)Cc2ncc(C(F)(F)F)cc2C(F)(F)F)c2ccc(F)cc2)nn1 :
Outgoing: FALSE

Incoming: Call for entry CC1COCCN1c1cc(C2(O)CC3CCC(C2)O3)c2cnn(-c3ccn[nH]3)c2n1 (stereo not given) + Nc1ccc(C#CCN(C(=O)Cc2ncc(C(F)(F)F)cc2C(F)(F)F)c2ccc(F)cc2)nn1 :
Outgoing: FALSE

Incoming: Call for entry CCCS(=O)(=O)Nc1ccc(F)c(C(=O)c2c[nH]c3ncc(-c4ccc(Cl)cc4)cc23)c1F + COC1C(OC(N)=O)C(O)C(Oc2ccc3c(O)c(NC(=O)c4ccc(O)c(CC=C(C)C)c4)c(=O)oc3c2C)OC1(C)C :
Outgoing: FALSE

Incoming: Call for entry CCc1c2c(nc3ccc(O)cc13)-c1cc3c(c(=O)n1C2)COC(=O)[C@]3(O)CC + Nc1ccc(C#CCN(C(=O)Cc2ncc(C(F)(F)F)cc2C(F)(F)F)c2ccc(F)cc2)nn1 :
Outgoing: TRUE

Incoming: Call for entry CC1COCCN1c1cc(C2(O)CC3CCC(C2)O3)c2cnn(-c3ccn[nH]3)c2n1 (stereo not given) + Cc1cccc(N(C)C(=O)C2C(O)CCN2c2nc(C)cc(C(F)(F)F)c2C#N)c1 :
Outgoing: FALSE

Incoming: Call for entry O=C(c1cc(Cc2n[nH]c(=O)c3ccccc23)ccc1F)N1CCN(C(=O)C2CC2)CC1 + Nc1ccc(C#CCN(C(=O)Cc2ncc(C(F)(F)F)cc2C(F)(F)F)c2ccc(F)cc2)nn1 :
Outgoing: FALSE

###

# Test system: 379773-124-R-J2-PDC spheroid viability
# Test Method Notes: Anticancer human tumor 379773-124-R-J2-PDC cell line growth inhibition [POLQ]; active = viability on the fitted dose curve at most 10% of control; inactive = the rest;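 further: spheroids exposed to drugs for seven days before readout; percent viability relative to DMSO vehicle control taken as 100%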
# Test Conditions: second compound 3.16 µM; first compound 0.1 µM; spheroids with HUVEC and MSC
Classes to choose from: active, inactive

Incoming: Call for entry CC[C@@]1(O)C(=O)OCc2c1cc1n(c2=O)Cc2cc3c(CN(C)C)c(O)ccc3nc2-1 + Nc1ccc(C#CCN(C(=O)Cc2ncc(C(F)(F)F)cc2C(F)(F)F)c2ccc(F)cc2)nn1 :
Outgoing: inactive

Incoming: Call for entry C=CCn1c(=O)c2cnc(Nc3ccc(N4CCN(C)CC4)cc3)nc2n1-c1cccc(C(C)(C)O)n1 + Cc1cccc(N(C)C(=O)C2C(O)CCN2c2nc(C)cc(C(F)(F)F)c2C#N)c1 :
Outgoing: inactive

Incoming: Call for entry CC1COCCN1c1cc(-c2ccnn2C)c2ccnc(-c3ccn[nH]3)c2n1 (centres undefined) + COC1C(OC(N)=O)C(O)C(Oc2ccc3c(O)c(NC(=O)c4ccc(O)c(CC=C(C)C)c4)c(=O)oc3c2C)OC1(C)C :
Outgoing: inactive

Incoming: Call for entry CNCc1ccc(-c2[nH]c3cc(F)cc4c3c2CCNC4=O)cc1 + Cc1cccc(N(C)C(=O)C2C(O)CCN2c2nc(C)cc(C(F)(F)F)c2C#N)c1 :
Outgoing: inactive

Incoming: Call for entry COc1cccc2c1C(=O)c1c(O)c3c(c(O)c1C2=O)CC(O)(C(=O)CO)CC3OC1CC(N)C(O)C(C)O1 (centres undefined) + Nc1ccc(C#CCN(C(=O)Cc2ncc(C(F)(F)F)cc2C(F)(F)F)c2ccc(F)cc2)nn1 :
Outgoing: inactive

Incoming: Call for entry CCCS(=O)(=O)Nc1ccc(F)c(C(=O)c2c[nH]c3ncc(-c4ccc(Cl)cc4)cc23)c1F + Cc1cccc(N(C)C(=O)C2C(O)CCN2c2nc(C)cc(C(F)(F)F)c2C#N)c1 :
Outgoing: inactive

Incoming: Call for entry CC(C)n1c(=O)n(C)c2cnc3cc(F)c(-c4ccc(OCCCN5CCCCC5)nc4)cc3c21 + Nc1ccc(C#CCN(C(=O)Cc2ncc(C(F)(F)F)cc2C(F)(F)F)c2ccc(F)cc2)nn1 :
Outgoing: inactive

Incoming: Call for entry O=C(Nc1ccc(O)c(NS(=O)(=O)c2ccc(F)cc2)c1)c1ccc(-c2ccccc2)cc1 + COC1C(OC(N)=O)C(O)C(Oc2ccc3c(O)c(NC(=O)c4ccc(O)c(CC=C(C)C)c4)c(=O)oc3c2C)OC1(C)C :
Outgoing: inactive

Incoming: Call for entry COc1cc2cc(C(=O)CCC(=O)O)sc2cc1OC + COC1C(OC(N)=O)C(O)C(Oc2ccc3c(O)c(NC(=O)c4ccc(O)c(CC=C(C)C)c4)c(=O)oc3c2C)OC1(C)C :
Outgoing: inactive

Incoming: Call for entry O=C(Nc1ccc(O)c(NS(=O)(=O)c2ccc(F)cc2)c1)c1ccc(-c2ccccc2)cc1 + Nc1ccc(C#CCN(C(=O)Cc2ncc(C(F)(F)F)cc2C(F)(F)F)c2ccc(F)cc2)nn1 :
Outgoing: inactive

Incoming: Call for entry O=C(c1cc(Cc2n[nH]c(=O)c3ccccc23)ccc1F)N1CCN(C(=O)C2CC2)CC1 + Nc1ccc(C#CCN(C(=O)Cc2ncc(C(F)(F)F)cc2C(F)(F)F)c2ccc(F)cc2)nn1 :
Outgoing: inactive

Incoming: Call for entry CC1COCCN1c1cc(C2(S(C)(=N)=O)CC2)nc(-c2ccnc3[nH]ccc23)n1 (centres undefined) + Cc1cccc(N(C)C(=O)C2C(O)CCN2c2nc(C)cc(C(F)(F)F)c2C#N)c1 :
Outgoing: inactive

Incoming: Call for entry CNCc1ccc(-c2[nH]c3cc(F)cc4c3c2CCNC4=O)cc1 + Nc1ccc(C#CCN(C(=O)Cc2ncc(C(F)(F)F)cc2C(F)(F)F)c2ccc(F)cc2)nn1 :
Outgoing: inactive

Incoming: Call for entry CCc1c2c(nc3ccc(O)cc13)-c1cc3c(c(=O)n1C2)COC(=O)[C@]3(O)CC + COC1C(OC(N)=O)C(O)C(Oc2ccc3c(O)c(NC(=O)c4ccc(O)c(CC=C(C)C)c4)c(=O)oc3c2C)OC1(C)C :
Outgoing: active

###

# Tested on: 379773-124-R-J2-PDC spheroid viability
# Test Method Notes: Anticancer human tumor 379773-124-R-J2-PDC cell line growth inhibition [POLQ];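 further: spheroids exposed to drugs for seven days before readout; percent viability relative to DMSO vehicle control taken as 100%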
# Test Conditions: second compound 10 µM; first compound 0.1 µM; active compounds read low; spheroids with HUVEC and MSC
Measurement Type: viability, T/C (%)
I only need the number, in %, no unit after it.

Incoming: viability, T/C lookup needed for CC[C@@]1(O)C(=O)OCc2c1cc1n(c2=O)Cc2cc3c(CN(C)C)c(O)ccc3nc2-1 + Nc1ccc(C#CCN(C(=O)Cc2ncc(C(F)(F)F)cc2C(F)(F)F)c2ccc(F)cc2)nn1 , thanks.
Outgoing: 21.8

Incoming: viability, T/C lookup needed for CCc1cc2c(N3CCc4c(cc(Cn5ccnc5)cc4-c4cn(C)nc4C(F)(F)F)C3=O)cc(C)nc2c(OC)n1 + Cc1cccc(N(C)C(=O)C2C(O)CCN2c2nc(C)cc(C(F)(F)F)c2C#N)c1 , thanks.
Outgoing: 64

Incoming: viability, T/C lookup needed for CC1COCCN1c1cc(C2(O)CC3CCC(C2)O3)c2cnn(-c3ccn[nH]3)c2n1 (stereo not given) + COC1C(OC(N)=O)C(O)C(Oc2ccc3c(O)c(NC(=O)c4ccc(O)c(CC=C(C)C)c4)c(=O)oc3c2C)OC1(C)C , thanks.
Outgoing: 42.4

Incoming: viability, T/C lookup needed for CCc1cc2c(N3CCc4c(cc(Cn5ccnc5)cc4-c4cn(C)nc4C(F)(F)F)C3=O)ccnc2c(OC)n1 + COC1C(OC(N)=O)C(O)C(Oc2ccc3c(O)c(NC(=O)c4ccc(O)c(CC=C(C)C)c4)c(=O)oc3c2C)OC1(C)C , thanks.
Outgoing: 59.6

Incoming: viability, T/C lookup needed for CC(C)n1c(=O)n(C)c2cnc3cc(F)c(-c4ccc(OCCCN5CCCCC5)nc4)cc3c21 + Cc1cccc(N(C)C(=O)C2C(O)CCN2c2nc(C)cc(C(F)(F)F)c2C#N)c1 , thanks.
Outgoing: 79.5
